# MEASUREMENT_TARGET: JAK2 (Homo sapiens)
# Construct: All four purified enzymes contain only the catalytic domain; His (N)
# Sequence (O60674 849-1124 limits assumed): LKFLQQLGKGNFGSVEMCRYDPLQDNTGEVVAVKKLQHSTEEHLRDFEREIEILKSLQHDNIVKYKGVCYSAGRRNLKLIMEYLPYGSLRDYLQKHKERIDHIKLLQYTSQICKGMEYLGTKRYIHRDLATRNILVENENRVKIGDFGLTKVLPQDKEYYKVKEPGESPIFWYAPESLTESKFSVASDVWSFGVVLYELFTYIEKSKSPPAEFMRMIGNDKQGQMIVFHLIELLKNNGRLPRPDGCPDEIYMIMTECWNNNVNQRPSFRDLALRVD
# EXPERIMENT: JAK2 kinase assay (HTRF, inhibition of phosphorylation of a synthetic peptide)
# STUDY_CONDITIONS: catalytic domain, His-tag; 4 μM ATP (Km); read-out: JAK2 kinase inhibitory activity (EC50)
pEC50: −log10 of the molar value.
Measured pEC50 by item
ATTRIBUTE_MEASURED: pEC50

[
  {
    "COMPOUND": "O=C(c1ccc(F)cc1)N1CCN(c2ncnc3[nH]ccc23)CC2(CC2)C1 [Example 113]",
    "RECORDED_RESULT": "6.00 to 7.00"
  },
  {
    "COMPOUND": "CCN(CCC#N)C(=O)N1CCN(c2ncnc3[nH]ccc23)CC2(CC2)C1 [Example 224]",
    "RECORDED_RESULT": "6.00 to 7.00"
  },
  {
    "COMPOUND": "CCCCC(=O)Nc1nc(N2CCCNC3(CC3)C2)c2cc[nH]c2n1 [Example 295]",
    "RECORDED_RESULT": "< 6.00"
  },
  {
    "COMPOUND": "CCCCC(=O)Nc1nc(N2CCNCC3(CC3)C2)c2cc[nH]c2n1 [Example 294]",
    "RECORDED_RESULT": "< 6.00"
  },
  {
    "COMPOUND": "O=C(c1cc(O)[nH]n1)N1CCCN(c2ncnc3[nH]ccc23)CC12CC2 [Example 212]",
    "RECORDED_RESULT": "6.00 to 7.00"
  },
  {
    "COMPOUND": "Cc1cc(C(=O)N2CCCN(c3ncnc4[nH]ccc34)CC23CC3)sn1 [Example 234]",
    "RECORDED_RESULT": "6.00 to 7.00"
  },
  {
    "COMPOUND": "O=C(CCC(F)(F)F)N1CCN(c2ncnc3[nH]ccc23)CCC12CC2 [Example 45]",
    "RECORDED_RESULT": "6.00 to 7.00"
  },
  {
    "COMPOUND": "N#Cc1ccccc1C(=O)N1CCN(c2ncnc3[nH]ccc23)CC2(CC2)C1 [Example 7]",
    "RECORDED_RESULT": "6.00 to 7.00"
  },
  {
    "COMPOUND": "O=C(c1cccnc1)N1CCN(c2ncnc3[nH]ccc23)CC2(CC2)C1 [Example 127]",
    "RECORDED_RESULT": "6.00 to 7.00"
  },
  {
    "COMPOUND": "Cc1nc(C)c(CC(=O)N2CCCN(c3ncnc4[nH]ccc34)CC23CC3)s1 [Example 140]",
    "RECORDED_RESULT": "< 6.00"
  },
  {
    "COMPOUND": "NS(=O)(=O)c1ccc(OCC(=O)N2CCN(c3ncnc4[nH]ccc34)CC3(CC3)C2)cc1 [Example 63]",
    "RECORDED_RESULT": "> 7.00"
  },
  {
    "COMPOUND": "O=C(c1ccncn1)N1CCCN(c2ncnc3[nH]ccc23)CC12CC2 [Example 166]",
    "RECORDED_RESULT": "> 7.00"
  },
  {
    "COMPOUND": "N#CC1(C(=O)N2CCN(c3ncnc4[nH]ccc34)CCC23CC3)CC1 [Example 44]",
    "RECORDED_RESULT": "6.00 to 7.00"
  },
  {
    "COMPOUND": "CCC1=NOC(C(=O)N2CCCN(c3ncnc4[nH]ccc34)CC23CC3)C1 (racemic) [Example 123]",
    "RECORDED_RESULT": "6.00 to 7.00"
  },
  {
    "COMPOUND": "Cc1n[nH]c(CC(=O)N2CCN(c3ncnc4[nH]ccc34)CC3(CC3)C2)n1 [Example 250]",
    "RECORDED_RESULT": "6.00 to 7.00"
  },
  {
    "COMPOUND": "O=C(c1cccc(O)n1)N1CCN(c2ncnc3[nH]ccc23)CC2(CC2)C1 [Example 163]",
    "RECORDED_RESULT": "6.00 to 7.00"
  },
  {
    "COMPOUND": "NS(=O)(=O)c1ccc2[nH]c(C(=O)N3CCN(c4ncnc5[nH]ccc45)CC4(CC4)C3)cc2c1 [Example 101]",
    "RECORDED_RESULT": "> 7.00"
  }
]
